Assign pIC50 to each entry below.
System: DU-145 multicell spheroids with HUVEC/MSC, viability
Experiment: Anticancer human tumor DU-145 cell line growth inhibition [IpAb];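 note: spheroids exposed to agents for seven days before measurement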
Conditions: curve of first compound; second compound 0.316 µM
Numbers only, as −log10 of the molar value.

For orientation, consider the following solved cases.
[[record]]
molecule = "CC(C)(C)c1cnc(CSc2cnc(NC(=O)C3CCNCC3)s2)o1 + CC(C)NCC(C(=O)N1CCN(c2ncnc3c2C(C)CC3O)CC1)c1ccc(Cl)cc1"
readout = "pIC50"
readout_value = 7.09

[[record]]
molecule = "Cc1nc(NC(=O)N2CCCC2C(N)=O)sc1-c1ccnc(C(C)(C)C(F)(F)F)c1 (configuration not stated) + CCN1CCN(Cc2ccc(Nc3ncc(F)c(-c4cc(F)c5nc(C)n(C(C)C)c5c4)n3)nc2)CC1"
readout = "pIC50"
readout_value = 7.03

[[record]]
molecule = "CC1(C)CCC(CN2CCN(c3ccc(C(=O)NS(=O)(=O)c4ccc(NCC5CCOCC5)c([N+](=O)[O-])c4)c(Oc4cnc5[nH]ccc5c4)c3)CC2)=C(c2ccc(Cl)cc2)C1 + CCN1CCN(Cc2ccc(Nc3ncc(F)c(-c4cc(F)c5nc(C)n(C(C)C)c5c4)n3)nc2)CC1"
readout = "pIC50"
readout_value = 5.44


Below are some molecules; for each one, tell me its pIC50.
1. Cn1cnc2c(F)c(Nc3ccc(Br)cc3Cl)c(C(=O)NOCCO)cc21 + CCN1CCN(Cc2ccc(Nc3ncc(F)c(-c4cc(F)c5nc(C)n(C(C)C)c5c4)n3)nc2)CC1
2. Cn1ncc(Cl)c1-c1cc(C(=O)NC(CN)Cc2cccc(F)c2)sc1Cl (configuration not stated) + CCN1CCN(Cc2ccc(Nc3ncc(F)c(-c4cc(F)c5nc(C)n(C(C)C)c5c4)n3)nc2)CC1
3. C=CC(=O)N1CCN(c2nc(=O)n(-c3c(C)ccnc3C(C)C)c3nc(-c4c(O)cccc4F)c(F)cc23)C(C)C1 (configuration not stated) + CC(C)NCC(C(=O)N1CCN(c2ncnc3c2C(C)CC3O)CC1)c1ccc(Cl)cc1

*A*
1: 6.74; 2: 7.10; 3: 5.38
